Test system: SK-MEL-28 melanoma
Assay: NCI tumour cell line growth inhibition, 48 h
Reported TGI by item:

Worked set:
> print(dat)
                                    compound  assay.readout  reported.value
 1  C=C(CN1CCc2ccccc2C1)c1ccc(C(=O)Nc2ccc(N)cc2)cc1            TGI         72.5 µM
 2  O=C1c2ccccc2-c2ccc(N=[N+]([O-])c3ccc4c(c3)C(=O)c3ccccc3-4)cc21            TGI        > 100 µM
 3  C/C=C(\C)C(=O)O[C@H]1C=CC(=O)O[C@H]1CNC(=O)[C@H](C)O            TGI         32.4 µM
 4  COc1ccc2c3ccc4c(c3n(C)c2c1)C(=O)c1ccccc1C4=O            TGI        > 100 µM
 5  COC1OC(CO)C(O)C(OC(=O)c2cc(O)c(O)c(O)c2)C1OC(=O)c1cc(O)c(O)c(O)c1 (stereo not given)            TGI        > 100 µM
 6          O=C1N=C(c2ccccc2)O/C1=C\c1ccccc1            TGI        > 100 µM
 7  CN(c1ccccc1)C(c1ccccc1)C(O)c1ccccc1 (stereo not given)            TGI         41.7 µM
 8      O=C1OC2(c3ccccc3Oc3ccccc32)c2ccccc21            TGI        > 100 µM
 9  C=C[C@@]1(C)CC(=O)[C@]2(O)[C@@]3(C)[C@@H](OC(C)=O)CCC(C)(C)[C@@H]3[C@H](OC(C)=O)[C@H](OC(C)=O)[C@@]2(C)O1            TGI        > 100 µM
10               O=C(Oc1ccc(CCl)cc1)c1ccccc1            TGI        0.315 µM

Record C=C1C(=O)C23CC1C[C@H](OC(C)=O)C2C1(C)C(OC(C)=O)C[C@H](O)C(C)(C)[C@H]1C(O)[C@@H]3OC(C)=O (stereo not given in full) , field TGI: 24.4 µM

TGI recorded for this compound, O=c1cc(-c2ccccc2)nc2n1CCN2Cc1ccccc1 , is > 100 µM

Measured TGI of COc1ccc(SC(C)(SC)c2ccccn2)c(OC)n1 (stereo not given) : > 100 µM

TGI reading for O=c1cc2ccccc2nn1-c1ccccc1Cl : > 100 µM

For this compound ( CC[N+](CC)(CC)CCCn1c2c(c3ccccc3c1=O)C(=O)c1ccccc1-2 ), measured TGI is > 100 µM

----------
System: KM12 colon
Assay: NCI tumour cell line growth inhibition, 48 h; in the data active means GI50 below about 0.43 µM; inactive means the rest
Answer with one of the outcomes yes = active, no = inactive

> print(dat)
                                   compound  category.label
1  CCN(CC)CCCCCCCNc1c2ccc(Cl)cc2nc2ccc(OC)cc12              no
2  Cc1[nH]c(/C=C2\C(=O)Nc3ccc(F)cc32)c(C)c1C(=O)NC[C@H](O)CN1CCOCC1             yes
3  COC(=O)/C(=C\c1c(C)[nH]c2ccccc12)S(=O)(=O)c1ccccc1              no

Request: Hello, I am checking results. What call was entered for CN(C)Cc1ccc(C(=O)Nc2ccc3ncnc(Nc4ccc(Oc5cccc(F)c5)c(Cl)c4)c3c2)cc1 ?
Result: no

Request: In this assay, the call recorded for CCSc1nc(N=Cc2cccs2)c2cn[nH]c2n1 was what?
Result: no

Request: Call for entry [C-]#[O+].[C-]#[O+].[Ir].[O-]c1cccc2cccnc12 :
Result: no

Request: Hi, do you know how O=C1CCC2(C=C(Br)C(=O)C(Br)=C2)O1 came out in this test?
Result: no

Request: Dear colleague, could you share the recorded outcome for C=C(CN1CCc2ccccc2C1)c1ccc(C(=O)Nc2ccc(N)cc2)cc1 when you have a moment?
Result: no

Request: Recorded test call requested for O=C1OC(=O)C2C1C1(c3ccccc3)C(c3ccccc3)=C(c3ccccc3)C2(c2ccccc2)S1=O (stereo unspecified)
Result: no

Request: Which outcome was assigned to Cc1ccc2c(=O)c3cccc(CC(=O)O)c3oc2c1C in this test?
Result: no

Request: What did this assay record as the result for O=C(NC(=S)Nc1ccc(Cl)cc1)c1ccccc1 ?
Result: no
